System: Aspergillus flavus
PROCEDURE_SUMMARY: Antifungal activity against Aspergillus flavus; also: test concentration or dose not given here
Type: functional
The source made the active and inactive calls. The rule behind the calls is not given here.
METRIC: inhibition zone (IZ)

The examples below pair each entry with its known result.
CC(Cl)OC(=O)O/N=C1\CC(c2ccccc2)N(C)C(c2ccccc2)C1C (centres undefined): 17 mm
COC(=O)O/N=C1\CC(c2ccccc2)N(C)C(c2ccccc2)C1C(C)C (centres undefined): 12 mm
CCOC(=O)O/N=C1\CC(c2ccccc2)N(C)C(c2ccccc2)C1C (centres undefined): 12 mm
COC(=O)O/N=C1\CC(c2ccccc2)N(C)C(c2ccccc2)C1C (centres undefined): 12 mm
CCC1/C(=N/OC(=O)OC)CC(c2ccccc2)N(C)C1c1ccccc1 (centres undefined): inactive
CCOC(=O)O/N=C1\CC(c2ccccc2)N(C)C(c2ccccc2)C1C(C)C (centres undefined): 12 mm

Enquiry: State its inhibition zone (IZ): CC1/C(=N/OC(=O)Oc2ccccc2)CC(c2ccccc2)N(C)C1c1ccccc1 (centres undefined)
Return: 12 mm

Enquiry: State its inhibition zone (IZ): CCC1/C(=N/O)CC(c2ccccc2)N(C)C1c1ccccc1 (centres undefined)
Return: inactive

Enquiry: State its inhibition zone (IZ): CC(C)C1/C(=N/O)CC(c2ccccc2)N(C)C1c1ccccc1 (centres undefined)
Return: inactive
